meta.source: patent US20140309229A1

Test system: HCT116SS42
test: MTS proliferation assay
Type: cell-based, human
assay setup: Homo sapiens, 72 h
value type: pIC50
Answers are plain numbers, as −log10 of the molar value.

Form entry - test system: HCT116SS42; read-out: pIC50; molecule: C[C@@]1(C(=O)Nc2ccc(F)nc2)CCCN1c1nc(Nc2cc(C3CC3)n[nH]2)c2cccn2n1 6.37

---

System: GEO
test: MTS proliferation assay
Type: cell-based, human
assay setup: Homo sapiens, 72 h
value type: IC50 (nM)
Answers are plain numbers, in nM.

May I ask what IC50 has been recorded for C[C@@]1(C(=O)Nc2ccc(F)nc2)CCCN1c1nc(Nc2cc(C3CC3)n[nH]2)c2cccn2n1 ? 407
